Settings: 0.1N HCL, 1.0% DMSO, 24-hour incubation at ambient temperature, maximum theoretical compound concentration 100 μM
Catalogue of compounds with associated pH 2 solubility

Some entries whose results are on file:
• CC(C)(CCN(CC(=O)O)C(=O)OCOP(=O)(O)O)C(=O)N(c1nn(CC(F)(F)F)c2c(-c3ccc(C#CC(C)(C)S(C)(=O)=O)nc3[C@H](Cc3cc(F)cc(F)c3)NC(=O)Cn3nc(C(F)(F)F)c4c3C(F)(F)[C@@H]3C[C@H]43)ccc(Cl)c12)S(C)(=O)=O [Compound 43] = 2 μM
• CC(C)(C#Cc1ccc(-c2ccc(Cl)c3c(N(C(=O)CCC(=O)OCOP(=O)(O)O)S(C)(=O)=O)nn(CC(F)(F)F)c23)c([C@H](Cc2cc(F)cc(F)c2)NC(=O)Cn2nc(C(F)(F)F)c3c2C(F)(F)[C@@H]2C[C@H]32)n1)S(C)(=O)=O [Compound 28] = 1 μM
• CC(C)(C#Cc1ccc(-c2ccc(Cl)c3c(N(C(=O)CCC(CC(=O)O)NC(=O)OCOP(=O)(O)O)S(C)(=O)=O)nn(CC(F)(F)F)c23)c([C@H](Cc2cc(F)cc(F)c2)NC(=O)Cn2nc(C(F)(F)F)c3c2C(F)(F)[C@@H]2C[C@H]32)n1)S(C)(=O)=O (stereo in doubt) [Compound 34] = 3 μM
• C[C@H](NC(=O)OCOP(=O)(O)O)C(=O)N(c1nn(CC(F)(F)F)c2c(-c3ccc(C#CC(C)(C)S(C)(=O)=O)nc3[C@H](Cc3cc(F)cc(F)c3)NC(=O)Cn3nc(C(F)(F)F)c4c3C(F)(F)[C@@H]3C[C@H]43)ccc(Cl)c12)S(C)(=O)=O [Compound 36] = 3 μM
• CC(C)(C#Cc1ccc(-c2ccc(Cl)c3c(N(C(=O)[C@@H](N)CCCCN)S(C)(=O)=O)nn(CC(F)(F)F)c23)c([C@H](Cc2cc(F)cc(F)c2)NC(=O)Cn2nc(C(F)(F)F)c3c2C(F)(F)[C@@H]2C[C@H]32)n1)S(C)(=O)=O [Compound 11] = 100 μM
• CC(C)(C#Cc1ccc(-c2ccc(Cl)c3c(N(C(=O)CCCN(C(=O)OCOP(=O)(O)O)[C@H](C(=O)O)c4ccccc4)S(C)(=O)=O)nn(CC(F)(F)F)c23)c([C@H](Cc2cc(F)cc(F)c2)NC(=O)Cn2nc(C(F)(F)F)c3c2C(F)(F)[C@@H]2C[C@H]32)n1)S(C)(=O)=O [Compound 40] = 1 μM

Okay, now this compound:
pH 2 solubility for CC(C)[C@H](N)C(=O)OCCCCC(=O)N(c1nn(CC(F)(F)F)c2c(-c3ccc(C#CC(C)(C)S(C)(=O)=O)nc3[C@H](Cc3cc(F)cc(F)c3)NC(=O)Cn3nc(C(F)(F)F)c4c3C(F)(F)[C@@H]3C[C@H]43)ccc(Cl)c12)S(C)(=O)=O [Compound 14] is 7 μM
